- System: MALME-3M melanoma
- EXPERIMENT SUMMARY: NCI tumour cell line growth inhibition, 48 h

{"COMPOUND": "C\\C=C/C=C/C=C/C(=O)O", "TGI": "> 100 µM"}
{"COMPOUND": "OC(C1=C/C(=C\\c2ccncc2)c2ccccc21)c1ccncc1 (stereo unspecified)", "TGI": "38.3 µM"}
{"COMPOUND": "Cc1ccc(C2(N3CCCC3)OC(C)(C)c3cccc4cccc2c34)cc1 (stereo unspecified)", "TGI": "41.4 µM"}
{"COMPOUND": "COC(=O)COc1ccc(/C=C2\\N=C(c3ccccc3)N(c3cc(C(F)(F)F)ccc3Cl)C2=O)cc1", "TGI": "> 100 µM"}
{"COMPOUND": "CC(=O)OCSc1ncnc2c1ncn2CN1CCOCC1", "TGI": "> 100 µM"}
{"COMPOUND": "[N-]=[N+]=NC1=NNC2(C(=O)N1)c1ccccc1-c1ccccc12", "TGI": "33.3 µM"}
{"COMPOUND": "O=C1C(Cl)=C(Oc2ccc([N+](=O)[O-])cc2)C(=O)c2c(O)ccc(O)c21", "TGI": "40.1 µM"}
{"COMPOUND": "CCCCCCCCCCC(C)CCCCCCC(=O)OCC(COP(=O)([O-])OCC[N+](C)(C)C)OC(=O)CCCCCCC(C)CCCCCCCCCC (stereo unspecified)", "TGI": "> 100 µM"}
{"COMPOUND": "O=C1CSC(c2cccc(Cl)c2)N1c1c(O)c(Cl)cc(Br)c1Cl (stereo unspecified)", "TGI": "> 100 µM"}
{"COMPOUND": "C[C@]12CC[C@H](O)CC1=CC[C@@H]1C2CC[C@]2(C)c3nn(-c4ccc(F)cc4)nc3CC12 (stereo partly specified)", "TGI": "> 100 µM"}
{"COMPOUND": "[N-]=[N+]=C(C(=O)OCC#CCOC(=O)C(=[N+]=[N-])S(=O)(=O)c1ccccc1)S(=O)(=O)c1ccccc1", "TGI": "> 10 µM"}
{"COMPOUND": "CCOC(=O)CN=C1Nc2ccccc2C(=O)N2CSCC12 (stereo unspecified)", "TGI": "> 100 µM"}
{"COMPOUND": "NCCCC(=O)Nc1ccncc1", "TGI": "> 100 µM"}
{"COMPOUND": "O=C(Nc1ccc(Cl)cc1)c1cccc([N+](=O)[O-])c1O", "TGI": "9.97 µM"}
{"COMPOUND": "O=c1[nH]c(=S)c2cc3c(=S)[nH]c(=O)n(CCC(c4ccccc4)(c4ccccc4)c4ccccc4)c3nc2n1CCC(c1ccccc1)(c1ccccc1)c1ccccc1", "TGI": "> 100 µM"}
{"COMPOUND": "OCCN1CN(c2nc(N3CN(CCO)C3)nc(N3CN(CCO)C3)n2)C1", "TGI": "39.3 µM"}
{"COMPOUND": "CN1c2ccccc2C(=O)NC12CCN(Cc1ccccc1)CC2", "TGI": "> 100 µM"}
{"COMPOUND": "COc1cc2c(cc1OC)C1=Cc3ccc(OC)c(OC)c3C(C#N)N1CC2 (stereo unspecified)", "TGI": "82.9 µM"}
{"COMPOUND": "NNC(=Nc1ccccc1)SCc1ccccc1", "TGI": "> 100 µM"}
{"COMPOUND": "COc1ccc2c(c1)C1Oc3ccccc3CC1(O)CO2 (stereo unspecified)", "TGI": "> 100 µM"}
{"COMPOUND": "O=C(/C=C/C=C/c1ccccc1)CCc1ccccc1", "TGI": "> 100 µM"}

* * *

- System: ACHN renal
- EXPERIMENT SUMMARY: NCI tumour cell line growth inhibition, 48 h

{"MOLECULE": "CCSCC(=O)N1CCc2c([nH]c3ccccc23)C1=O", "SYSTEM NAME": "ACHN renal", "TGI": "> 100 µM"}
{"MOLECULE": "C/C=C1/CN2[C@@H](C3=C[C@@H]4[C@@H]5N(C3=O)c3ccccc3[C@@]53CCN5C/C(=C/C)[C@@H]4C[C@H]53)C[C@@]34c5ccccc5N5C(=O)CC=C([C@H]1C[C@H]23)[C@H]54", "SYSTEM NAME": "ACHN renal", "TGI": "12.1 µM"}
{"MOLECULE": "COC(=O)/C=C(C)/C=C/c1cc(C(C)=O)c(C)o1", "SYSTEM NAME": "ACHN renal", "TGI": "> 100 µM"}
{"MOLECULE": "O=C(Nc1ccc(Cl)cc1)c1cccc([N+](=O)[O-])c1O", "SYSTEM NAME": "ACHN renal", "TGI": "> 100 µM"}
{"MOLECULE": "N#CCc1ccc(C(C#N)/C(CCCC(=O)Nc2cccc([N+](=O)[O-])c2)=N\\NC(=O)NN)cc1 (centres undefined)", "SYSTEM NAME": "ACHN renal", "TGI": "> 100 µM"}
{"MOLECULE": "COc1cc(NC(=O)c2cc(OC)c3ccn(C)c3c2)cc2c1C[C@]1(C)CC[C@@H](O)C(C)(C)[C@H]1O2", "SYSTEM NAME": "ACHN renal", "TGI": "> 100 µM"}
{"MOLECULE": "Cc1cccc(/C=N/NC(=S)N2CCCCCC2)n1", "SYSTEM NAME": "ACHN renal", "TGI": "1.71 µM"}
{"MOLECULE": "OCC(O)C(O)C(O)C1SC(c2ccccc2)=NN1c1ccccc1 (centres undefined)", "SYSTEM NAME": "ACHN renal", "TGI": "> 83 µM"}
{"MOLECULE": "c1ccc2[nH]c(SSc3nc4ncncc4[nH]3)nc2c1", "SYSTEM NAME": "ACHN renal", "TGI": "> 100 µM"}

* * *

- System: KM12 colon
- EXPERIMENT SUMMARY: NCI tumour cell line growth inhibition, 48 h

{"COMPOUND": "CCCCCNC(=O)[C@@H]1CCCN2C(=O)CC[C@H](NC(=O)[C@H](Cc3ccc(OP(=O)(O)O)cc3)NC(C)=O)C(=O)N12", "TGI": "> 25 µM"}
{"COMPOUND": "CCOC(=O)c1[nH]cnc1/N=N/N(C)N", "TGI": "14 µM"}
{"COMPOUND": "Cc1ccc(S(=O)(=O)NC(=O)NC(Cc2ccccc2)C(=O)O)cc1 (stereo not given)", "TGI": "> 100 µM"}
{"COMPOUND": "CN1c2ccccc2C(=O)NC12CCN(Cc1ccccc1)CC2", "TGI": "> 100 µM"}
{"COMPOUND": "O=c1[nH]c2nccnc2c2c([N+](=O)[O-])cccc12", "TGI": "> 100 µM"}
{"COMPOUND": "Cc1ccccc1CN1CC2=C(CCN(Cc3ccccc3)C2=O)N2CCN=C12", "TGI": "> 100 µM"}
{"COMPOUND": "CC(=O)C1CC2(c3ccc(C)cc3)C(c3ccc(C)cc3)=C(c3ccc(C)cc3)C1(c1ccc(C)cc1)S2=O (stereo not given)", "TGI": "> 100 µM"}
{"COMPOUND": "C=CC[C@H]1C[C@@]2(C)OC[C@H](C(C)C)N2C1=O", "TGI": "> 100 µM"}
{"COMPOUND": "NNC(=Nc1ccccc1)SCc1ccccc1", "TGI": "> 100 µM"}
{"COMPOUND": "N=C1c2nc3n(c2C(=O)c2nc4n(c21)CCCC4)CCCC3", "TGI": "> 100 µM"}
{"COMPOUND": "Cc1cc(O)c(C(=O)CC2(O)C(=O)Nc3c(Cl)cc(Cl)cc32)c(=O)o1 (stereo not given)", "TGI": "> 100 µM"}
{"COMPOUND": "CC(=O)Nc1ccc(N2C(=O)CS(=O)(=O)C2c2cccc(Oc3ccccc3)c2)cc1 (stereo not given)", "TGI": "47.2 µM"}
{"COMPOUND": "O=c1[nH]nc(-c2ccc([N+](=O)[O-])cc2)n1/N=C/c1ccc([N+](=O)[O-])cc1", "TGI": "> 100 µM"}
{"COMPOUND": "N#CC1=C(N)NC(=S)NC12Nc1ccccc1O2 (stereo not given)", "TGI": "> 100 µM"}
{"COMPOUND": "N#CCN1CCCCCc2ccccc21", "TGI": "> 100 µM"}

* * *

- System: SF-295 CNS
- EXPERIMENT SUMMARY: NCI tumour cell line growth inhibition, 48 h
READOUT NAME: TGI

{"COMPOUND": "C=CC[C@H]1C[C@@]2(C)OC[C@H](C(C)C)N2C1=O", "READOUT NAME": "TGI", "RESULT": "> 100 µM"}
{"COMPOUND": "CCOC(O)C(F)(F)F (stereo not given)", "READOUT NAME": "TGI", "RESULT": "> 100 µM"}
{"COMPOUND": "O=C1c2n[nH]nc2C(=O)c2n[nH]nc21", "READOUT NAME": "TGI", "RESULT": "> 100 µM"}
{"COMPOUND": "O=C(NC1CC1)c1ccc(-c2nc3ccc4[nH]ncc4c3c3c2CCCC3)cc1", "READOUT NAME": "TGI", "RESULT": "13.6 µM"}
{"COMPOUND": "COc1ccc(C[C@H]2NC(=O)/C=C/C[C@@H]([C@H](C)[C@H]3O[C@@H]3c3ccccc3)OC(=O)[C@H](CC(C)C)OC(=O)[C@H](C)CNC2=O)cc1", "READOUT NAME": "TGI", "RESULT": "> 6.84e-05 µM"}
{"COMPOUND": "CC1Cc2c(N)nc(NN)nc2NC1=O (stereo not given)", "READOUT NAME": "TGI", "RESULT": "> 100 µM"}
{"COMPOUND": "CC(=O)[CH-]C(=O)c1ccccc1.CC(=O)[CH-]C(=O)c1ccccc1.CC(=O)[CH-]C(=O)c1ccccc1.[Tl+3]", "READOUT NAME": "TGI", "RESULT": "> 100 µM"}
{"COMPOUND": "CC1(CCc2ccccc2)CC1(Br)Br (stereo not given)", "READOUT NAME": "TGI", "RESULT": "> 100 µM"}
{"COMPOUND": "CC(/C=N/N(C)C1=NCCCCN1)=N/N(C)C1=NCCCCN1", "READOUT NAME": "TGI", "RESULT": "> 100 µM"}
{"COMPOUND": "CN1c2ccccc2C(=O)NC12CCN(Cc1ccccc1)CC2", "READOUT NAME": "TGI", "RESULT": "> 100 µM"}
{"COMPOUND": "O=[N+]([O-])c1ccc(Sc2c3ccccc3nc3ccccc23)cc1", "READOUT NAME": "TGI", "RESULT": "> 100 µM"}
{"COMPOUND": "CC(=O)OC(CC(C)C)P1(=O)N(CC(C)(C)C)[C@@H]2CCCC[C@H]2N1CC(C)(C)C (stereo not given in full)", "READOUT NAME": "TGI", "RESULT": "20.4 µM"}
{"COMPOUND": "O=S(=O)(O)c1ccc2c(N=Nc3ccccc3)c(O)c(S(=O)(=O)O)cc2c1", "READOUT NAME": "TGI", "RESULT": "> 100 µM"}
{"COMPOUND": "N#CC(c1nc2ccccc2s1)c1nc(Cl)ncc1Br (stereo not given)", "READOUT NAME": "TGI", "RESULT": "> 100 µM"}
{"COMPOUND": "CC(=O)Nc1ccc(N2C(=O)CS(=O)(=O)C2c2cccc(Oc3ccccc3)c2)cc1 (stereo not given)", "READOUT NAME": "TGI", "RESULT": "36.7 µM"}
{"COMPOUND": "COc1ccc(C2=NN(C(=O)COc3ccc(Cl)cc3)C(O)(c3cc(F)c(Cl)cc3Cl)C2)cc1OC (stereo not given)", "READOUT NAME": "TGI", "RESULT": "11.8 µM"}
{"COMPOUND": "COc1ccccc1C1=C2C(=O)N(C)C(c3ccccc3OC)=C2C(=O)N1C", "READOUT NAME": "TGI", "RESULT": "> 100 µM"}
{"COMPOUND": "O=C(Nc1ccccc1)c1cc(S(=O)(=O)Nc2n[nH]c(=O)[nH]2)c(SSc2cc(Cl)c(C(=O)Nc3ccccc3)cc2S(=O)(=O)Nc2n[nH]c(=O)[nH]2)cc1Cl", "READOUT NAME": "TGI", "RESULT": "> 100 µM"}
{"COMPOUND": "CCCCCCCCCCC(C)CCCCCCC(=O)OCC(COP(=O)([O-])OCC[N+](C)(C)C)OC(=O)CCCCCCC(C)CCCCCCCCCC (stereo not given)", "READOUT NAME": "TGI", "RESULT": "> 100 µM"}
{"COMPOUND": "CC(=O)OCSc1ncnc2c1ncn2CN1CCOCC1", "READOUT NAME": "TGI", "RESULT": "> 100 µM"}
